B1: HMOX1 (parent)
chain: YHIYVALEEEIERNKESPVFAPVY

- Variants of: B1
- measurement.protocol: protein stability index of a GFP-peptide fusion (GPS, HEK-293T) (PSI 1-6); higher = more stable;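 also: lentivirally expressed fusions sorted by FACS into six bins by GFP to DsRed ratio, PSI derived from sequencing read proportions per bin multiplied by bin number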
- protocol.conditions: c terminus: a fixed tail appended

| mutation | protein stability index |
| --- | --- |
| E12W | 2.27 |
| E12M | 1.2 |
| Y24L | 2.31 |
| E9I | 1.62 |
| I3Y | 1.91 |
| Y1E | 4.37 |
| V5L | 2.29 |
| R13Q | 1.54 |
| Y24M | 2.22 |
| L7F | 1.97 |
| K15E | 1.37 |
| E10F | 1.78 |
| I3N | 2.12 |
| R13W | 2.25 |
| P18S | 2.13 |
| A6H | 3.14 |
| V23P | 2.69 |
| H2N | 2.7 |
| V19D | 2.7 |
| Y4G | 1.64 |
| Y1I | 3.18 |
| P18M | 1.75 |
| P22S | 1.55 |
| E8S | 3.74 |
| A6Q | 2.42 |
| E9H | 1.58 |
| P18T | 2.06 |
| A21S | 2.02 |
| P18R | 1.98 |
| K15S | 1.98 |
| L7K | 2.2 |
| V19S | 2.15 |
| V23N | 1.78 |
| H2I | 1.51 |
| E9L | 2.57 |
| E9K | 2.14 |
| I11A | 1.31 |
| A21Y | 1.49 |
| R13C | 1.39 |
| H2E | 3.12 |
| E16D | 1.59 |
| E9M | 1.72 |
| V23Y | 1.64 |
| E8R | 2.42 |
| E10W | 1.26 |
| E10G | 1.54 |

Cited source for all entries: the supplement of paper PMC10567573
